# assay.summary: Solubility of the compound at pH 6.8
# Assay type: physicochemical
# run.parameters: buffer
readout.label: solubility

Data point: COc1cc2[nH]c(C)c(-c3ccc(Oc4ccc(OC(F)(F)F)cc4)cc3)c(=O)c2cc1Cl ; solubility = < 1 µM

* * *

# assay.summary: Elimination half life in CD-1 mouse at 5 mg/kg, po
# Format: ADME, organism-based
# Design: dose 5 mg/kg, route oral
# run.parameters: in vivo, read-out: beta t1/2 (converted)
readout.label: half-life (h)
Number only, in h; omit the unit.

Data point: CCOC(=O)c1c(-c2ccc(-c3ccc(OC(F)(F)F)cc3)cn2)[nH]c2ccccc2c1=O ; half-life = 10.6

* * *

# Test system: Plasmodium falciparum
# assay.summary: Antiplasmodial activity against chloroquine-sensitive Plasmodium falciparum 3D7
# Format: functional, organism-based
readout.label: EC50 (nM)
Number only, in nM; omit the unit.

Data point: FC(F)(F)Oc1ccc(Nc2cc(Nc3nccn3-c3cccc(C(F)(F)F)c3)ncn2)cc1 ; EC50 = 420

* * *

# Test system: Plasmodium falciparum
# assay.summary: Antimicrobial activity against clinical isolates of Plasmodium falciparum
# Assay type: functional, organism-based
readout.label: pEC50
When answering, recall that pEC50 equals minus log10 of the concentration in mol/L, and write that number alone.

Data point: COc1cc2[nH]c(C)c(-c3ccc(Oc4ccc(OC(F)(F)F)cc4)cc3)c(=O)c2cc1Cl ; pEC50 = 9.00
